assay: Capillary wicking time of laminated membrane strip (hydrophilicity); assay type: physicochemical; settings: 28 days storage at 45° C; surfactant-treated (example 4 Part E), Poly SC9 laminate
Sorting guide: entries reporting Wicking Time to traverse 5.4 cm strip beneath 6 min go in the 1 pile, the rest go in the 0 pile.

Exam item: Is Wicking Time to traverse 5.4 cm strip strictly under 6 min for the entry CCCCCCCS(=O)(=O)O [heptane sulfonic acid] ?
Marked response: 1

Exam item: Is Wicking Time to traverse 5.4 cm strip strictly under 6 min for the entry CCCCCCCCCCS(=O)(=O)O [decane sulfonic acid] ?
Marked response: 0

Exam item: Is Wicking Time to traverse 5.4 cm strip strictly under 6 min for the entry CCCCCCCCCCCCS(=O)(=O)O [dodecane sulfonic acid] ?
Marked response: 0

Exam item: Is Wicking Time to traverse 5.4 cm strip strictly under 6 min for the entry CCCCCCCCS(=O)(=O)O [octane sulfonic acid] ?
Marked response: 1

Exam item: Is Wicking Time to traverse 5.4 cm strip strictly under 6 min for the entry CCCCCS(=O)(=O)O [pentane sulfonic acid] ?
Marked response: 1

###

test: Capillary wicking time of laminated membrane strip (hydrophilicity); assay type: physicochemical; conditions: 7 days storage at 45° C; surfactant-treated (example 4 Part E), Poly SC9 laminate
MEASUREMENT_NAME: Wicking Time to traverse 5.4 cm strip (min)
Please give a number only; it is taken to be in min.

Exam item: Please indicate Wicking Time to traverse 5.4 cm strip recorded for CCCCCCCS(=O)(=O)O [heptane sulfonic acid]
Marked response: 5.3

Exam item: Please indicate Wicking Time to traverse 5.4 cm strip recorded for CCCCCCCCCCCCS(=O)(=O)O [dodecane sulfonic acid]
Marked response: 6.4

Exam item: Please indicate Wicking Time to traverse 5.4 cm strip recorded for CCCCCCCCCCCCOS(=O)(=O)[O-].[Na+] [sodium dodecyl sulfate]
Marked response: 7.1

Exam item: Please indicate Wicking Time to traverse 5.4 cm strip recorded for CCCCCS(=O)(=O)O [pentane sulfonic acid]
Marked response: 5.5

Exam item: Please indicate Wicking Time to traverse 5.4 cm strip recorded for CCCCCCCCS(=O)(=O)O [octane sulfonic acid]
Marked response: 5.6

Exam item: Please indicate Wicking Time to traverse 5.4 cm strip recorded for CCCCCCCCCCS(=O)(=O)O [decane sulfonic acid]
Marked response: 6.4

###

For each entry below, report its Wicking Time to traverse 5.4 cm strip value.
test: Capillary wicking time of laminated membrane strip (hydrophilicity); format: physicochemical; settings: 21 days storage at 45° C; surfactant-treated (example 4 Part E), Poly SC9 laminate
Please give a number only; it is taken to be in min.

Exam item: Please indicate Wicking Time to traverse 5.4 cm strip recorded for CCCCCS(=O)(=O)O
Marked response: 5.6

Exam item: Please indicate Wicking Time to traverse 5.4 cm strip recorded for CCCCCCCCCCCCS(=O)(=O)O
Marked response: 6.3

Exam item: Please indicate Wicking Time to traverse 5.4 cm strip recorded for CCCCCCCCS(=O)(=O)O
Marked response: 5.6

Exam item: Please indicate Wicking Time to traverse 5.4 cm strip recorded for CCCCCCCCCCS(=O)(=O)O
Marked response: 6.3

Exam item: Please indicate Wicking Time to traverse 5.4 cm strip recorded for CCCCCCCS(=O)(=O)O
Marked response: 5.2

Exam item: Please indicate Wicking Time to traverse 5.4 cm strip recorded for CCCCCCCCCCCCOS(=O)(=O)[O-].[Na+] [sodium dodecyl sulfate]
Marked response: 6.4
